tested on: Severe acute respiratory syndrome coronavirus 2; assay: Inhibition of SARS-CoV-2 Main protease using MCA-AVLQSGFR-Lys(Dnp)-Lys-NH2 as substrate at 5 uM preincubated for 10 mins followed by substrate addition and measured after 10 mins by FRET assay relative to control; conditions: time 20.0 min
Calls of active or inactive are those of the source. How the calls were made is not given here.
Hello, when you answer, please use one of the following outcomes: active, inactive

Reference set, count: 5
{"MOL SMILES": "O=C(c1cccnc1)N1CCN(c2ccc(Cl)c(Cl)c2)[C@H](c2cn(-c3ccc(CO)cc3)nn2)C1", "CATEGORY LABEL": "active"}
{"MOL SMILES": "O=C(c1cccnc1)N1CCN(c2ccc(Cl)c(Cl)c2)[C@H](c2cn(CCc3ccccc3)nn2)C1", "CATEGORY LABEL": "active"}
{"MOL SMILES": "O=C(c1cccnc1)N1CCN(c2ccc(Cl)c(Cl)c2)[C@H](c2cn(Cc3cccc([N+](=O)[O-])c3)nn2)C1", "CATEGORY LABEL": "active"}
{"MOL SMILES": "N#Cc1ccc(Cn2cc([C@@H]3CN(C(=O)c4cccnc4)CCN3c3ccc(Cl)c(Cl)c3)nn2)cn1", "CATEGORY LABEL": "active"}
{"MOL SMILES": "CNC(=O)Cn1cc([C@@H]2CN(C(=O)c3cccnc3)CCN2c2ccc(Cl)c(Cl)c2)nn1", "CATEGORY LABEL": "active"}

Prompt line: For this molecule, state the assay outcome: `O=C(c1cccnc1)N1CCN(c2ccc(Cl)c(Cl)c2)[C@H](c2cn(Cc3ccc(C(F)(F)F)nc3)nn2)C1`
Response line: active

Prompt line: Also check `O=C(c1cccnc1)N1CCN(c2ccc(Cl)c(Cl)c2)[C@H](c2cn(Cc3ccc(C(F)(F)F)cc3F)nn2)C1`
Response line: inactive
